test system: CAKI-1; test: NCI tumour cell line growth inhibition, 48 h
Activity calls are given as the source filed them. No stated cut-off is given here; in the data, active = GI50 up to about 1.1 µM and inactive = higher.
experimental.endpoint: GI50

Briefly, GI50 measured for N=c1oc2ccccc2cc1C(=O)Nc1ccccn1 : 45.4 µM (inactive)

So, CN1CCc2c([nH]c3ccccc23)C1 ? Its GI50 was > 100 µM (inactive)

// field: GI50; key: CC(C)N(C)C(=O)C12C3C4C1C1C2C3C41C#N (centres undefined) ; value = > 100 µM (inactive)

Quick note, GI50 for COc1cc(/C=C2/CCCc3ccccc3C2=O)cc(OC)c1OC landed at 18.8 µM (inactive)

GI50 reading for NC(=S)NNC(=S)NC(=O)c1ccco1 : > 10 µM (inactive)

Per the record, O=C1CCCC2=C1CC1=C(CCCC1=O)N2c1cccc([N+](=O)[O-])c1 has GI50 of > 100 µM (inactive)

In plain terms, CC(C)c1cccc(C(C)C)c1NC1=CC(=O)C(=O)c2ccccc21 has a documented GI50 of > 100 µM (inactive)

# GI50 of O=C(Oc1cncc(Cl)c1)c1cc2ccccc2sc1=O = > 100 µM (inactive)

// GI50 value for COC1C2C=CC(C2)[C@H]1[N+](=O)[O-] (some centres undefined) : > 100 µM (inactive)

CS(=O)(=O)c1nc(-c2cc3c(c(S(C)(=O)=O)n2)CCC3)cc2c1CCC2 has a reported GI50 of > 100 µM (inactive)

response.value for O=C1c2ccccc2C(=O)C2NC(CCCCCSSCCCCCC3=NC4C(=O)c5ccccc5C(=O)C4N3)=NC12 (centres undefined) (field: GI50) = 6.47 µM (inactive)

// GI50 value for COc1cc2c(cc1C)NC(=O)/C2=C\c1ccncc1 : 3.57 µM (inactive)

Recorded GI50 (compound COc1cc([C@@H]2OCC3C(c4ccc5c(c4)OCO5)OCC32)cc(OC)c1OC (some centres undefined) ): > 100 µM (inactive)

Just so you know, measured GI50 for CC(=O)CCn1ncc(Cl)c(Cl)c1=O came out at 1.91 µM (inactive)

Entry O=C1O[C@H]2[C@H](O)[C@@H](OC(=O)c3cc(O)c(O)c4c3[C@@H]3C1=CC(=O)C(O)(O)C3(O)O4)[C@H](OC(=O)c1cc(O)c(O)c(O)c1)O[C@@H]2CO (some centres undefined) ; GI50 = > 100 µM (inactive)

So for CSCC[C@H](NC(=O)[C@H](CC(C)C)NC(=O)[C@@H](Cc1ccccc1)NC(=O)CNC(=O)[C@@H](NC(=O)[C@H](C)NC(=O)[C@H](Cc1c[nH]c2ccccc12)NC(=O)[C@H](CCC(N)=O)NC(=O)[C@H](N)CC(N)=O)C(C)C)C(N)=O , the logged GI50 turned out to be > 12.5 µM (inactive)

In plain terms, CC(=O)OC1CC2C(C)(C)C(=O)C=C[C@]2(C)C2CCC3(C)C(c4ccoc4)C(=O)C4OC43[C@]12C (some centres undefined) has a documented GI50 of 28.5 µM (inactive)

Form field GI50, entry CC(C)=CCc1c2c(c3occ(-c4ccc(O)cc4)c(=O)c3c1O)CC(C(C)(C)O)O2 (centres undefined) : 18.8 µM (inactive)

The measured GI50 associated with CC(=O)ONC(C(=O)C(C)(C)C)C(=O)C(C)(C)C reads > 100 µM (inactive)
